- Tested on: HT29 colon
- assay-notes: NCI-60 one-dose screen, 48 h
- particulars: 10 µM unless noted
The panel holds about 83,000 compounds, 20% with a hit somewhere; the sample as a whole holds those more often. Activity calls are given as the source filed them. Rule for the calls: active = growth percent below 10; inactive = the rest.
Labels: 1 = active, -1 = inactive

O=C1/C=C/[C@@H](O)[C@@H]2C[C@@H](O)C[C@H]2/C=C/CCC[C@H](CCO)O1    1
CN1CCN(CCOc2ccc(-c3cnc4c(-c5ccc(F)cc5)cnn4c3)cc2)CC1    1
Nc1nc(N)c(N=Nc2ccccc2)c(-c2ccccc2)n1    -1
COC(=O)c1c2c(n3ccccc13)C(=O)c1ccccc1C2=O    -1
Cc1cc2c(cc1C)N(C(=O)CCl)CC(=O)N2    1
N#Cc1ccc(O)c(C2=NCC(Cc3ccccc3)O2)c1 (stereo unspecified)    -1
